Quick list: PBM binding z-score per entry.
# System: LXRa:RXRa (NR concentration 270 nM, RXRa partner concentration 90 nM)
# procedure.details: PBM binding z-score (relative to random genomic background probes); higher = stronger binding; sequences stand for … in GC…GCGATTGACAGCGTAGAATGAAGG

{"seq": "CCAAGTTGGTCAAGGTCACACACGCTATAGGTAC", "tested.target": "LXRa:RXRa (NR concentration 270 nM, RXRa partner concentration 90 nM)", "PBM binding z-score": 4.1}
{"seq": "AGTCAAAGTCCATCTAGGTAACGTAAGATATGCT", "tested.target": "LXRa:RXRa (NR concentration 270 nM, RXRa partner concentration 90 nM)", "PBM binding z-score": -0.375}
{"seq": "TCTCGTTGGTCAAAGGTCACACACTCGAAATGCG", "tested.target": "LXRa:RXRa (NR concentration 270 nM, RXRa partner concentration 90 nM)", "PBM binding z-score": 5.68}
{"seq": "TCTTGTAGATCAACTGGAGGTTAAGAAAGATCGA", "tested.target": "LXRa:RXRa (NR concentration 270 nM, RXRa partner concentration 90 nM)", "PBM binding z-score": 1.71}
{"seq": "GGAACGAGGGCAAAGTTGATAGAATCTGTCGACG", "tested.target": "LXRa:RXRa (NR concentration 270 nM, RXRa partner concentration 90 nM)", "PBM binding z-score": 1.1}
{"seq": "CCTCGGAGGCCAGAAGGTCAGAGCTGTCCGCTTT", "tested.target": "LXRa:RXRa (NR concentration 270 nM, RXRa partner concentration 90 nM)", "PBM binding z-score": 1.39}

---

# System: RARg homodimer (NR concentration 270 nM)
# procedure.details: PBM binding z-score (relative to random genomic background probes); higher = stronger binding; sequences stand for … in GC…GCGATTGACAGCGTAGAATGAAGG

{"seq": "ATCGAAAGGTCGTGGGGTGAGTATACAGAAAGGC", "tested.target": "RARg homodimer (NR concentration 270 nM)", "PBM binding z-score": 4.44}
{"seq": "GCTGCTAGGTCAGGTTGGTCAGCTGACGGGTACG", "tested.target": "RARg homodimer (NR concentration 270 nM)", "PBM binding z-score": 3.56}
{"seq": "AGAACGAGGGCACGCTTAGTTGATAGCAGAGTAG", "tested.target": "RARg homodimer (NR concentration 270 nM)", "PBM binding z-score": 2.33}
{"seq": "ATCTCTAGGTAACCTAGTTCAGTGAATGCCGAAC", "tested.target": "RARg homodimer (NR concentration 270 nM)", "PBM binding z-score": 0.668}
{"seq": "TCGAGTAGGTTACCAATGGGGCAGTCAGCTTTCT", "tested.target": "RARg homodimer (NR concentration 270 nM)", "PBM binding z-score": 0.257}
{"seq": "CCTGGTAGGTCAATGGTCAGCTAAAGCAGCTCGC", "tested.target": "RARg homodimer (NR concentration 270 nM)", "PBM binding z-score": 4.04}
{"seq": "CCACGGAGGACAGAAGGTCAGAGCTGTCCGCTTT", "tested.target": "RARg homodimer (NR concentration 270 nM)", "PBM binding z-score": 3.48}
{"seq": "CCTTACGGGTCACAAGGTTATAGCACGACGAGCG", "tested.target": "RARg homodimer (NR concentration 270 nM)", "PBM binding z-score": 4.75}
{"seq": "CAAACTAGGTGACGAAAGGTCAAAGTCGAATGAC", "tested.target": "RARg homodimer (NR concentration 270 nM)", "PBM binding z-score": 6.26}
{"seq": "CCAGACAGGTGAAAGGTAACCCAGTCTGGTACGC", "tested.target": "RARg homodimer (NR concentration 270 nM)", "PBM binding z-score": 0.881}
{"seq": "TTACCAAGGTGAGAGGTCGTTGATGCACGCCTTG", "tested.target": "RARg homodimer (NR concentration 270 nM)", "PBM binding z-score": 1.3}
{"seq": "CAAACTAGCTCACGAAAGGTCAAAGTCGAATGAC", "tested.target": "RARg homodimer (NR concentration 270 nM)", "PBM binding z-score": 5.04}

---

# System: VDR homodimer (NR concentration 270 nM)
# procedure.details: PBM binding z-score (relative to random genomic background probes); higher = stronger binding; sequences stand for … in GC…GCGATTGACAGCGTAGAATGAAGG
Returns class 1 if the recorded PBM binding z-score is greater than or equal to 0.4, and class 0 otherwise.

{"seq": "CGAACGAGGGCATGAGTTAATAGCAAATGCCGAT", "tested.target": "VDR homodimer (NR concentration 270 nM)", "classification": "class 1"}
{"seq": "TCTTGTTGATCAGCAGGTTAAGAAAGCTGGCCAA", "tested.target": "VDR homodimer (NR concentration 270 nM)", "classification": "class 0"}
{"seq": "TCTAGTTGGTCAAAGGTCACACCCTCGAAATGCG", "tested.target": "VDR homodimer (NR concentration 270 nM)", "classification": "class 1"}
{"seq": "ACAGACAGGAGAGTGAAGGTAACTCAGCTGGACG", "tested.target": "VDR homodimer (NR concentration 270 nM)", "classification": "class 0"}
{"seq": "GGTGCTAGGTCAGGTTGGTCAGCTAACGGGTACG", "tested.target": "VDR homodimer (NR concentration 270 nM)", "classification": "class 1"}
{"seq": "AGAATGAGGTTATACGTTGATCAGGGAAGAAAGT", "tested.target": "VDR homodimer (NR concentration 270 nM)", "classification": "class 1"}
{"seq": "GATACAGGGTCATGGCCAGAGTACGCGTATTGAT", "tested.target": "VDR homodimer (NR concentration 270 nM)", "classification": "class 1"}
{"seq": "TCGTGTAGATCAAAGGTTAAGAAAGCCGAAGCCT", "tested.target": "VDR homodimer (NR concentration 270 nM)", "classification": "class 0"}
{"seq": "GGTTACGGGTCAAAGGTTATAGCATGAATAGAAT", "tested.target": "VDR homodimer (NR concentration 270 nM)", "classification": "class 1"}
{"seq": "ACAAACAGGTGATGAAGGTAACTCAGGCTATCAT", "tested.target": "VDR homodimer (NR concentration 270 nM)", "classification": "class 0"}
{"seq": "TCATATAGGTAAACTGGTGAAAGTCCGTAAGTTA", "tested.target": "VDR homodimer (NR concentration 270 nM)", "classification": "class 0"}
{"seq": "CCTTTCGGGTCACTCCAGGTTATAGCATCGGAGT", "tested.target": "VDR homodimer (NR concentration 270 nM)", "classification": "class 1"}
{"seq": "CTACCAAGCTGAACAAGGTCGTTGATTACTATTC", "tested.target": "VDR homodimer (NR concentration 270 nM)", "classification": "class 1"}
{"seq": "CCTAGTTGGTCAGGCGGTCACACACCGGATATGA", "tested.target": "VDR homodimer (NR concentration 270 nM)", "classification": "class 0"}
{"seq": "AGAATGAGGTTACTAAGATCAGGGAATTGCGGTC", "tested.target": "VDR homodimer (NR concentration 270 nM)", "classification": "class 1"}
{"seq": "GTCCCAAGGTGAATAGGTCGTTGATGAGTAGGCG", "tested.target": "VDR homodimer (NR concentration 270 nM)", "classification": "class 1"}
{"seq": "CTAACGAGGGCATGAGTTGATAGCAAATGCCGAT", "tested.target": "VDR homodimer (NR concentration 270 nM)", "classification": "class 1"}
{"seq": "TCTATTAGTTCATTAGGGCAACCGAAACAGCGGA", "tested.target": "VDR homodimer (NR concentration 270 nM)", "classification": "class 1"}
{"seq": "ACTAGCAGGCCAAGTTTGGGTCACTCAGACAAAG", "tested.target": "VDR homodimer (NR concentration 270 nM)", "classification": "class 0"}
{"seq": "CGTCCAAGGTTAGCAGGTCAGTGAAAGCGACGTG", "tested.target": "VDR homodimer (NR concentration 270 nM)", "classification": "class 1"}
{"seq": "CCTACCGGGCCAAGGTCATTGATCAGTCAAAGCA", "tested.target": "VDR homodimer (NR concentration 270 nM)", "classification": "class 1"}
{"seq": "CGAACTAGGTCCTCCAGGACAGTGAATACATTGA", "tested.target": "VDR homodimer (NR concentration 270 nM)", "classification": "class 0"}
{"seq": "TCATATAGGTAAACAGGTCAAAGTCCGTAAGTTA", "tested.target": "VDR homodimer (NR concentration 270 nM)", "classification": "class 1"}
{"seq": "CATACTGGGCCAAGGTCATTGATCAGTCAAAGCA", "tested.target": "VDR homodimer (NR concentration 270 nM)", "classification": "class 1"}
{"seq": "CGTCCAAGGTCAAGGTAAGTGAAAGAGACTCGAA", "tested.target": "VDR homodimer (NR concentration 270 nM)", "classification": "class 1"}
{"seq": "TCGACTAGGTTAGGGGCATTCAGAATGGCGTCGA", "tested.target": "VDR homodimer (NR concentration 270 nM)", "classification": "class 1"}
